Molecular target: T1, huFc fused dimeric human Tim3-ECD (human, UniProt Q8TDQ0 22-202)
T1 construct: also called huTim3Fc; bivalent Tim3
Test: SPR Biacore, bivalent Tim3
Measured Kd accompanies every entry in the list below.
Numeric only. Scale: nM

For orientation, consider the following solved cases.
INSERT INTO results (binder, measure_unit, measured_value) VALUES
  ('Tim3_0016 variant (Tim3_0018) (antibody, V domains shown, also called TIM3-0016 variant (0018); aTim3 0018) VH: QVTLKESGPGILQPSQTLSLTCSFSGFSLSTSGMSVGWIRQPSGKGLEWLAHIWLNDDVFFNPALKRRLTISKDTSNNQVFLQIASVVTADTATYYCVRANGYLYALDYWGQGISVTVSS VL: QIVLTQSPAIMSASPGQKVTITCSASSSVNYTQWYQQKLGSSPKLWIYDAFKLAPGVPARFSGSGTGTSYSLTISSMEAEDAASYFCHQWSSYPWTFGGGTKLEIK', 'nM', 1.1),
  ('Tim3_0026 (antibody, V domains shown) VH: QIQLVQSGPELKKPGETVKISCKASGYTFTDYSMHWVKQAPGRGLKWMGYINTETYEPTFGADFKGRFAFSLDTSATTAYLQINSLKTEDTATFFCGGGGYPAYWGQGTVVIVSA VL: DVLMTQTPLSLPVSLGDQASISCRSSRTILHSSGNTYLEWYLQKPGQSPKLLIYKVSNRFSGVPDRFSGSGSGTDFTLNISRVEAEDLGVYYCFQDSHVPFTFGTGTKLEIK', 'nM', 1.5);

Endpoint output: Kd of Tim3_0021 (antibody, V domains shown) VH: QVQLQQSGPQLVRPGASVQISCKASGYSFTSYLLHWLKQRPGQGLEWIGMIDPSDSETRLNQKFKDKATLTVDKSSSTAYMQLSSPTSEDSAVYYCARDGYYAWYYFDCWGQGTTLTVSS VL: DIVLTQSPATLSVTPGDRVSLSCRASQSIGNNLHWYQQKSHESPRLLIKYASHSISGIPSKFSGTGSGTDFTLSFNSVETEDFGMYFCQQSNSWPLTFGAGTKLELK . Value?
4.1
